Data origin: BindingDB's records for doi:10.1016/j.bmcl.2014.07.007

- TESTED_SYSTEM: Phosphatidylinositol 4,5-bisphosphate 3-kinase catalytic subunit alpha isoform (Homo sapiens, UniProt P42336)
- Sequence (P42336 whole entry, canonical isoform): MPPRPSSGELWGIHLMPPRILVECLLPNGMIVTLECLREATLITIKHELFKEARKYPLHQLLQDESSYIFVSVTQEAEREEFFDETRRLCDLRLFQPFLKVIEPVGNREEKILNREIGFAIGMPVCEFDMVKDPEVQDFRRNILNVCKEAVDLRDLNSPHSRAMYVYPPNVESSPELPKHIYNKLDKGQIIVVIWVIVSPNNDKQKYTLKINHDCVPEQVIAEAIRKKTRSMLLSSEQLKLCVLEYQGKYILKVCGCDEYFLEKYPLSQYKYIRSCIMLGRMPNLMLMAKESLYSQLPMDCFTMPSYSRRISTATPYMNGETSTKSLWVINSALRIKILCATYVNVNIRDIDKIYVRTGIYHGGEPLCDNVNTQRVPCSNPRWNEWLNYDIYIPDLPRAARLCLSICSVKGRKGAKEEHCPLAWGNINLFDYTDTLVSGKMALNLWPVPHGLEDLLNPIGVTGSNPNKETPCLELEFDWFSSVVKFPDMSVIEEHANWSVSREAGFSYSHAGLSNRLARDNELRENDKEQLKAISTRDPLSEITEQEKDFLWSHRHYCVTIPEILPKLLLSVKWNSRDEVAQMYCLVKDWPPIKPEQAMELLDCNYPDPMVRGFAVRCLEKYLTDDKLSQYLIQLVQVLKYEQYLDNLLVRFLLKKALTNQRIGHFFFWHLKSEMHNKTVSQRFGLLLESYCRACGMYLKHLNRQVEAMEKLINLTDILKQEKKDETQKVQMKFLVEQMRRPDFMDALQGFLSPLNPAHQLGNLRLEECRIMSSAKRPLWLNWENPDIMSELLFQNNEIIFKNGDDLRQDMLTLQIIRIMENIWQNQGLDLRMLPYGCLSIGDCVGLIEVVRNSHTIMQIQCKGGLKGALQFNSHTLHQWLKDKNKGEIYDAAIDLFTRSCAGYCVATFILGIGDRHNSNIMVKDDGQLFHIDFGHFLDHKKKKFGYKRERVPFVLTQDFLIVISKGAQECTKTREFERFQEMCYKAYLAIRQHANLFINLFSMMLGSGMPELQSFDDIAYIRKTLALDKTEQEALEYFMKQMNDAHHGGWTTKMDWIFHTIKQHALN
- MEASUREMENT_NOTES: Inhibition of human recombinant PI3Kalpha assessed as PIP3 production by AlphaScreen assay
Values of IC50 strictly less than 2 µM map to Fulfilled, and values of at least 2 µM map to Not fulfilled.

COMPOUND: Cc1cc(C(C)Nc2cccc(C(=O)O)c2)c2nc(N3CCOCC3)cc(=O)n2c1 (centres undefined)
ANSWER_LABEL: Not fulfilled
--
COMPOUND: CC(Nc1ccccc1)c1cc(C(=O)N(C)CCO)cn2c(=O)cc(N3CCOCC3)nc12 (centres undefined)
ANSWER_LABEL: Not fulfilled
--
COMPOUND: Cc1c(F)cccc1OC(C)c1cc(C(=O)N(C)CCO)cn2c(=O)cc(N3CCOCC3)nc12 (centres undefined)
ANSWER_LABEL: Fulfilled
--
COMPOUND: Cc1cc(C(C)Nc2ccccc2S(=O)(=O)O)c2nc(N3CCOCC3)cc(=O)n2c1 (centres undefined)
ANSWER_LABEL: Fulfilled
--
COMPOUND: CC(Nc1ccccc1)c1cc(C(=O)N2CCOCC2)cn2c(=O)cc(N3CCOCC3)nc12 (centres undefined)
ANSWER_LABEL: Not fulfilled
--
COMPOUND: CC(Oc1ccccc1)c1cc(C(=O)N(C)CCO)cn2c(=O)cc(N3CCOCC3)nc12 (centres undefined)
ANSWER_LABEL: Not fulfilled
--
COMPOUND: COc1cccc(OC(C)c2cc(C(=O)N(C)CCO)cn3c(=O)cc(N4CCOCC4)nc23)c1 (centres undefined)
ANSWER_LABEL: Not fulfilled
--
COMPOUND: Cc1ccccc1OC(C)c1cc(C(=O)N(C)CCO)cn2c(=O)cc(N3CCOCC3)nc12 (centres undefined)
ANSWER_LABEL: Fulfilled
--
COMPOUND: Cc1cc(C(C)Nc2cc(Cl)ccc2C(=O)O)c2nc(N3CCOCC3)cc(=O)n2c1 (centres undefined)
ANSWER_LABEL: Fulfilled
--
COMPOUND: CC(Oc1cccc(C#N)c1)c1cc(C(=O)N(C)CCO)cn2c(=O)cc(N3CCOCC3)nc12 (centres undefined)
ANSWER_LABEL: Not fulfilled
--
COMPOUND: CC(Nc1ccccc1)c1cc(C(=O)O)cn2c(=O)cc(N3CCOCC3)nc12 (centres undefined)
ANSWER_LABEL: Fulfilled
--
COMPOUND: CC(Oc1ccccc1F)c1cc(C(=O)N(C)CCO)cn2c(=O)cc(N3CCOCC3)nc12 (centres undefined)
ANSWER_LABEL: Not fulfilled
--
COMPOUND: Cc1cc(C(C)Nc2ccccc2-c2nnn[nH]2)c2nc(N3CCOCC3)cc(=O)n2c1 (centres undefined)
ANSWER_LABEL: Fulfilled
--
COMPOUND: CC(Nc1ccccc1)c1cc(C(=O)NCCN2CCNCC2)cn2c(=O)cc(N3CCOCC3)nc12 (centres undefined)
ANSWER_LABEL: Not fulfilled
--
COMPOUND: CC(Nc1ccccc1)c1cc(C(=O)NCCN(C)C)cn2c(=O)cc(N3CCOCC3)nc12 (centres undefined)
ANSWER_LABEL: Not fulfilled
--
COMPOUND: Cc1cccc(OC(C)c2cc(C(=O)N(C)CCO)cn3c(=O)cc(N4CCOCC4)nc23)c1 (centres undefined)
ANSWER_LABEL: Not fulfilled
--
COMPOUND: COc1ccccc1OC(C)c1cc(C(=O)N(C)CCO)cn2c(=O)cc(N3CCOCC3)nc12 (centres undefined)
ANSWER_LABEL: Not fulfilled
--
COMPOUND: CC(Nc1ccccc1)c1cc(C(=O)N(C)CC(=O)O)cn2c(=O)cc(N3CCOCC3)nc12 (centres undefined)
ANSWER_LABEL: Not fulfilled
--
COMPOUND: CC(Nc1ccccc1)c1cc(C(=O)N(C)C)cn2c(=O)cc(N3CCOCC3)nc12 (centres undefined)
ANSWER_LABEL: Not fulfilled
